# Method summary: in vitro
# Assay setup: human, HEL 299 cells
# Description: Selectivity index, ratio of CC50 for cytotoxicity against HEL 299 cells to EC50 for antiviral activity against HCoV-229E infected in HEL 299 cells
Property label: selectivity ratio

[[record]]
smiles = "CCCOc1ccc(-c2cc(OCCN(CC)CC)c3c(OC)ccc(OC)c3n2)cc1"
comparison_symbol = "="
recorded_result = 13.8

[[record]]
smiles = "CCCOc1ccc(-c2cc(OCCN3CCCCC3)c3c(OC)ccc(OC)c3n2)cc1"
comparison_symbol = "="
recorded_result = 10.2

[[record]]
smiles = "CCCOc1ccc(-c2cc(OCCN(CC)CC)c3cc(OC)c(OC)cc3n2)cc1"
comparison_symbol = "="
recorded_result = 5.2

[[record]]
smiles = "CCCOc1ccc(-c2cc(OCCN3CCN(Cc4ccccc4)CC3)c3ccccc3n2)cc1"
comparison_symbol = ">"
recorded_result = 1.6

[[record]]
smiles = "CCCOc1ccc(-c2cc(OCCN(CC)CC)c3cccc(OC)c3n2)cc1"
comparison_symbol = "="
recorded_result = 8.2

[[record]]
smiles = "CCCOc1ccc(-c2cc(OCCN3CCNCC3)c3cccc(OC)c3n2)cc1"
comparison_symbol = "="
recorded_result = 25.6

[[record]]
smiles = "CCCOc1ccc(-c2cc(OCCN(CC)CC)c3cc(OC)cc(OC)c3n2)cc1"
comparison_symbol = "="
recorded_result = 12.4

[[record]]
smiles = "CCCOc1ccc(-c2cc(OCCN3CCN(Cc4ccccc4)CC3)c3c(OC)cc(OC)cc3n2)cc1"
comparison_symbol = "="
recorded_result = 16.4

[[record]]
smiles = "CCCOc1ccc(-c2cc(OCCN3CCCC3)c3cc(OC)cc(OC)c3n2)cc1"
comparison_symbol = ">"
recorded_result = 2.5

[[record]]
smiles = "CCCOc1ccc(-c2cc(OCCN3CCCCC3)c3cc(OC)c(OC)cc3n2)cc1"
comparison_symbol = "="
recorded_result = 52.4

[[record]]
smiles = "CCCOc1ccc(-c2cc(OCCN3CCCC3)c3c(OC)ccc(OC)c3n2)cc1"
comparison_symbol = "="
recorded_result = 13.4


---

# Method summary: in vitro
# Assay setup: monkey, Vero E6 cells
# Description: Selectivity index, ratio of CC50 for cytotoxicity against African green monkey Vero E6 cells to EC50 for antiviral activity against SARS-CoV-2 infected in eGFP expressing African green monkey Vero E6 cells
Property label: selectivity ratio

[[record]]
smiles = "CCCOc1ccc(-c2cc(OCCN(CC)CC)c3cc(OC)c(OC)cc3n2)cc1"
comparison_symbol = "="
recorded_result = 13.8

[[record]]
smiles = "CCCOc1ccc(-c2cc(OCCN3CCCCC3)c3cc(OC)c(OC)cc3n2)cc1"
comparison_symbol = "="
recorded_result = 4.3

[[record]]
smiles = "CCCOc1ccc(-c2cc(OCCN3CCN(Cc4ccccc4)CC3)c3ccccc3n2)cc1"
comparison_symbol = ">"
recorded_result = 8.4

[[record]]
smiles = "CCCOc1ccc(-c2cc(OCCN(CC)CC)c3cc(OC)cc(OC)c3n2)cc1"
comparison_symbol = ">"
recorded_result = 7.7

[[record]]
smiles = "CCCOc1ccc(-c2cc(OCCN3CCN(Cc4ccccc4)CC3)c3cccc(OC)c3n2)cc1"
comparison_symbol = "="
recorded_result = 2.8

[[record]]
smiles = "CCCOc1ccc(-c2cc(OCCN3CCCC3)c3c(OC)ccc(OC)c3n2)cc1"
comparison_symbol = "="
recorded_result = 7.9

[[record]]
smiles = "CCCOc1ccc(-c2cc(OCCN3CCCCC3)c3c(OC)ccc(OC)c3n2)cc1"
comparison_symbol = "="
recorded_result = 8.8

[[record]]
smiles = "CCCOc1ccc(-c2cc(OCCN(CC)CC)c3c(OC)ccc(OC)c3n2)cc1"
comparison_symbol = "="
recorded_result = 5.3

[[record]]
smiles = "CCCOc1ccc(-c2cc(OCCN(CC)CC)c3cccc(OC)c3n2)cc1"
comparison_symbol = ">"
recorded_result = 11

[[record]]
smiles = "CCCOc1ccc(-c2cc(OCCN3CCCC3)c3cc(OC)c(OC)cc3n2)cc1"
comparison_symbol = "="
recorded_result = 1.3

[[record]]
smiles = "CCCOc1ccc(-c2cc(OCCN3CCNCC3)c3cccc(OC)c3n2)cc1"
comparison_symbol = "="
recorded_result = 4.3

[[record]]
smiles = "CCCOc1ccc(-c2cc(OCCN3CCN(Cc4ccccc4)CC3)c3c(OC)cc(OC)cc3n2)cc1"
comparison_symbol = ">"
recorded_result = 12.7

[[record]]
smiles = "CCCOc1ccc(-c2cc(OCCN3CCCC3)c3cc(OC)cc(OC)c3n2)cc1"
comparison_symbol = ">"
recorded_result = 16.9

[[record]]
smiles = "CCCOc1ccc(-c2cc(OCCN(CC)CC)c3c(OC)c(OC)c(OC)cc3n2)cc1"
comparison_symbol = "="
recorded_result = 2.9

